test: promoters of myeloid differentiation in arrested cells, primary screen, cell-based, GFP/MAC1 double positive, flow cytometry, validation set (AID 588685); conditions: ER-HoxA9 marrow cells, stronger effect = higher value, normalized: vehicle 0, fulvestrant 100;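 note: compound exposure lasts four days before antibody staining and flow analysis; 0% = DMSO wells and 100% = 5 µM fulvestrant positive control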
attribute_measured: differentiation response (%)
Only the number, expressed in %, is required.

# count of solved cases: 8
• O=C(Oc1cccccc1=O)c1ccccc1 = 5.85
• CC(C)CN1CC(C(=O)O)CC1=O (configuration not stated) = 5.73
• C[C@]12CC[C@@H]3c4cc(O)c(O)cc4CC[C@H]3[C@@H]1CC[C@@H]2O = 8.06
• COc1ccc(CCNC(=O)C(=O)Nc2ccc3c(c2)OCO3)cc1OC = -1.82
• CC(C)NC[C@@H](O)c1ccc(O)c(O)c1 = -7.5
• Cc1ccccc1OCC(O)CN1CCN(C)CC1 (configuration not stated) = -2.46
• O=C1OC(c2ccc(O)cc2)(c2ccc(O)cc2)c2ccccc21 = -24.4
• COc1ccc2c(c1)c(CC(=O)O)c(C)n2C(=O)c1ccc(Cl)cc1 = -13.1

Lookup: What value of measured differentiation response is listed for O=C(NCc1ccccc1Cl)NC(=O)c1ccccc1 ?
Found: 1.64

Lookup: What value of measured differentiation response is listed for COc1cc2c(cc1OC)C1(CCCCC1)CN(C)C2 ?
Found: 4

Lookup: What value of measured differentiation response is listed for COc1ccc(/C=C2\CCn3c2nc2cc(C(=O)O)ccc2c3=O)cc1OC ?
Found: -8.96

Lookup: What value of measured differentiation response is listed for CCOc1ccccc1Oc1coc2cc(OCC(=O)O)ccc2c1=O ?
Found: -8.93

---

The reader will find reported GFP response, % of DMSO values listed item by item below.
assay: modulators of CIT2-GFP expression in yeast, confirmation, S. cerevisiae, GFP fusion, cherry picks, mother/daughter gates (AID 2274); settings: S. cerevisiae CIT2-GFP strain, flow cytometry, 3 h; measured here: daughter cell gate; at 10 µM; stronger effect = higher value
Only the number, expressed in %, is required.

- Cc1cccc(CS(=O)(=O)c2ncc(Cl)c(C(=O)Nc3nnc(C(C)C)s3)n2)c1: 99.3

Lookup: What value of measured GFP response, % of DMSO is listed for CCCc1[nH]nc2c1C(c1ccc(OC)c(Cn3nc(C)c(Br)c3C)c1)C(C#N)=C(N)O2 (stereo not drawn) ?
Found: 98.3

Lookup: What value of measured GFP response, % of DMSO is listed for O=C(NCC(=O)N1CCCC1)c1cccs1 ?
Found: 105

Lookup: What value of measured GFP response, % of DMSO is listed for CC1(C)CC(=O)C(C(C2=C(O)CC(C)(C)CC2=O)c2cccs2)C(=O)C1 (stereo not drawn) ?
Found: 102

Lookup: What value of measured GFP response, % of DMSO is listed for CC(=O)c1cc(NC(=O)c2ccc(C)cc2)c(=O)oc1C ?
Found: 100

---

test: RPL19A-GFP modulators, yeast TOR pathway, confirmation, cell-based, S. cerevisiae, flow cytometry, cherry picks, mother/daughter gates (AID 2270); settings: S. cerevisiae RPL19A-GFP strain, 3 h, measured here: mother cell gate, at 10 µM, stronger effect = lower value, 100 = same GFP as DMSO wells
The reader will find reported GFP response vs DMSO values listed item by item below.
Only the number, expressed in %, is required.

# count of solved cases: 4
* COc1cc(NC(=O)c2ccc(F)cc2)ccc1NC(=O)c1cc2ccccc2o1 | 94.3
* Cc1ccc(C(=O)O/N=C(\N)Cc2cccs2)c(Cl)c1 | 99.3
* COC(=O)Cn1nc(-c2ccccc2)c2ccccc21 | 92.9
* O=C(NCc1ccc2c(c1)OCO2)c1nc(S(=O)(=O)Cc2ccccc2F)ncc1Cl | 97.8

Lookup: What value of measured GFP response vs DMSO is listed for COc1cccc(C(=O)Nc2ccccc2)c1 ?
Found: 96.7

Lookup: What value of measured GFP response vs DMSO is listed for CC1(C)CC(=O)C(C(C2=C(O)CC(C)(C)CC2=O)c2cccs2)C(=O)C1 (stereo unspecified) ?
Found: 101

---

assay: modulators of MEP2-GFP levels in yeast, confirmation, S. cerevisiae, flow cytometry GFP, cherry picks (AID 2272);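 note: ratio of well signal to plate DMSO mean so 100% equals DMSO level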; conditions: S. cerevisiae MEP2-GFP strain, 3 h, at 10 µM, stronger effect = higher value
The source made the active and inactive calls.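 The calls were made as follows: active = GFP response above 150% of the DMSO control; inconclusive = Fewer than 70 cells counted for a yeast strain; inactive = the rest.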
attribute_measured: GFP response vs DMSO

# count of solved cases: 5
• Cc1cc(O)c(C(=O)/C=C/c2ccccc2Br)c(=O)o1 = 97.8% (inactive)
• O=c1[nH]n(Cc2ccccc2)c2ccccc12 = 102% (inactive)
• O=C(O)CCCn1nc(-c2ccccc2)c2ccccc21 = 103% (inactive)
• COc1ccc(-c2csc(NC(=O)CSc3nc(C)nc4sc(C(=O)O)c(C)c34)n2)cc1 = 102% (inactive)
• Cc1ccc(/C=C2/SC(=S)N(C3CCCCC3)C2=O)o1 = 126% (inactive)

Lookup: What value of measured GFP response vs DMSO is listed for COc1ccc(C2CC(c3ccccc3)=NN2S(=O)(=O)c2ccccc2)c(OC)c1 (stereo unspecified) ?
Found: 99% (inactive)

Lookup: What value of measured GFP response vs DMSO is listed for CCOC(=O)Cc1csc(NC(=O)c2sc3nc4c(C)cc(C)cc4cc3c2N)n1 ?
Found: 109% (inactive)

---

The reader will find reported vesicle binding response values listed item by item below.
experiment: inhibitors of CD8+ T cell-vesicle binding, pilot screen, LFA-1/ICAM-1 modulator project, MLPCN validation set, flow cytometry (AID 2523); settings: 2C mouse CD8+ T cells, at 7 µM, stronger effect = lower value;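 note: mean PE anti-B7-1 fluorescence of CD8+ cells relative to row control; 100% = QL9-loaded vesicles with DMSO vehicle in the same plate row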
Only the number, expressed in %, is required.

# count of solved cases: 3
* Nc1cccc2nc3ccccc3cc12 | 235
* CS(=O)(=O)Oc1ccc2c(c1)O/C(=C\C=C\c1ccccc1)C2=O | 247
* CCN1C(=O)C(CC(=O)Nc2ccc(F)cc2)N(Cc2ccc3c(c2)OCO3)C1=S (stereo unspecified) | 124

Lookup: What value of measured vesicle binding response is listed for CCOC(=O)/C=C1\NC(C)(C)Cc2cc(OC)c(OC)cc21 ?
Found: 271

Lookup: What value of measured vesicle binding response is listed for CN(CCc1cnn(C)c1)Cc1nc(CC2CC2)no1 ?
Found: 194

Lookup: What value of measured vesicle binding response is listed for C=CCn1c(SCC(=O)NC2CCCCC2)nc2ccccc2c1=O ?
Found: 172

Lookup: What value of measured vesicle binding response is listed for c1ccc2c(c1)CCCC2C1=NCCN1 (stereo unspecified) ?
Found: 263

Lookup: What value of measured vesicle binding response is listed for CC(NCCC(c1ccccc1)c1ccccc1)c1ccccc1 (stereo unspecified) ?
Found: 167

Lookup: What value of measured vesicle binding response is listed for CC1(C)CC(=O)C(C(=O)CCCCC(=O)C2C(=O)CC(C)(C)CC2=O)C(=O)C1 ?
Found: 197

Lookup: What value of measured vesicle binding response is listed for C[C@@H]1C[C@H]2[C@@H]3CCC4=CC(=O)C=C[C@]4(C)[C@@]3(F)[C@@H](O)C[C@]2(C)[C@H]1C(=O)CO ?
Found: 226

Lookup: What value of measured vesicle binding response is listed for CC(=O)c1c(N)nc2n(c1=O)CCCCC2 ?
Found: 201

---

assay: modulators of CIT2-GFP expression in yeast, confirmation, S. cerevisiae, GFP fusion, cherry picks, mother/daughter gates (AID 2274); details: S. cerevisiae CIT2-GFP strain, flow cytometry, 3 h; measured here: daughter cell gate; at 10 µM; stronger effect = higher value
The reader will find reported GFP response, % of DMSO values listed item by item below.
Only the number, expressed in %, is required.

Lookup: What value of measured GFP response, % of DMSO is listed for COC(=O)c1ccc(NC(=O)c2nc(S(=O)(=O)Cc3cccc(C)c3)ncc2Cl)cc1 ?
Found: 88.3

Lookup: What value of measured GFP response, % of DMSO is listed for Cn1c(N2CCCC2)nc2c1c(=O)n(Cc1ccc(Cl)cc1)c(=O)n2C ?
Found: 77.5

Lookup: What value of measured GFP response, % of DMSO is listed for CCCn1c(=O)c(C(=O)NCc2ccc(OC)c(OC)c2)c(O)c2ccccc21 ?
Found: 97.2

Lookup: What value of measured GFP response, % of DMSO is listed for O=C(O)CSC1CC(=O)N(c2ccc(Cl)c(Cl)c2)C1=O (stereo not drawn) ?
Found: 99.3

Lookup: What value of measured GFP response, % of DMSO is listed for CCCCn1c(-c2csc3c2CCCC3)n[nH]c1=S ?
Found: 77.9

Lookup: What value of measured GFP response, % of DMSO is listed for COc1ccc(C(=O)NNC(=S)NC(=O)/C=C/c2cccs2)cc1 ?
Found: 112

Lookup: What value of measured GFP response, % of DMSO is listed for O=C(NC(c1ccccc1)C(Cl)Cl)c1ccccc1 (stereo not drawn) ?
Found: 108

Lookup: What value of measured GFP response, % of DMSO is listed for CCOc1cc(/C=C2\N=C(C)OC2=O)cc(Br)c1OCC(=O)OC ?
Found: 102
